src = patent US11524944B2

Biological target: Human AhR (Homo sapiens)
Experiment: Transactivation assay in human cell line (in vitro assay 1): antagonism
Settings: U87 glioblastoma cells, AHR inducible firefly luciferase reporter (DRE), 150 μM kynurenic acid, 20 hours
Assay metric: log10 IC50 (log10 of the value in nM)
# values: log10(IC50), units nM

> print(dat)
                           smiles.structure  assay.metric  measured.number
1  C[C@@H](CO)NC(=O)c1cc(-c2ccc(OC(F)(F)F)cc2)nc(-c2ccc(F)cc2)n1    log10 IC50             2.34

Consider the following items and state reported log10 IC50 for each.
1. CC(C)(O)CNC(=O)c1cc(-c2ccc(OC(F)(F)F)cc2)nc(-c2ccc(F)cc2)n1
2. Cc1cc(F)cc(-c2nc(C(=O)N[C@@H](C)CO)cc(-c3ccc(OC(F)(F)F)cc3)n2)c1
3. C[C@@H](CO)NC(=O)c1cc(-c2ccc(OC(F)(F)F)cc2)nc(-c2cccc(C#N)c2)n1
4. CC(C)(O)CNC(=O)c1cc(-c2ccc(OC(F)(F)F)cc2)nc(-c2cc(F)cc(C#N)c2)n1

Response given:
1: 1.41; 2: 1.47; 3: 1.26; 4: 1.60

Consider the following items and state reported log10 IC50 for each.
1. Cc1cccc(-c2nc(C(=O)N[C@@H](C)CO)cc(-c3ccc(Cl)cc3)n2)c1
2. C[C@H](CO)NC(=O)c1cc(-c2ccc(Cl)cc2)nc(-c2cccc(F)c2)n1

Response given:
1: 0.86; 2: 0.77

----------
Target: Mouse AhR (Mus musculus)
Sequence (P30561 1-848 P471L/N533S/M589L): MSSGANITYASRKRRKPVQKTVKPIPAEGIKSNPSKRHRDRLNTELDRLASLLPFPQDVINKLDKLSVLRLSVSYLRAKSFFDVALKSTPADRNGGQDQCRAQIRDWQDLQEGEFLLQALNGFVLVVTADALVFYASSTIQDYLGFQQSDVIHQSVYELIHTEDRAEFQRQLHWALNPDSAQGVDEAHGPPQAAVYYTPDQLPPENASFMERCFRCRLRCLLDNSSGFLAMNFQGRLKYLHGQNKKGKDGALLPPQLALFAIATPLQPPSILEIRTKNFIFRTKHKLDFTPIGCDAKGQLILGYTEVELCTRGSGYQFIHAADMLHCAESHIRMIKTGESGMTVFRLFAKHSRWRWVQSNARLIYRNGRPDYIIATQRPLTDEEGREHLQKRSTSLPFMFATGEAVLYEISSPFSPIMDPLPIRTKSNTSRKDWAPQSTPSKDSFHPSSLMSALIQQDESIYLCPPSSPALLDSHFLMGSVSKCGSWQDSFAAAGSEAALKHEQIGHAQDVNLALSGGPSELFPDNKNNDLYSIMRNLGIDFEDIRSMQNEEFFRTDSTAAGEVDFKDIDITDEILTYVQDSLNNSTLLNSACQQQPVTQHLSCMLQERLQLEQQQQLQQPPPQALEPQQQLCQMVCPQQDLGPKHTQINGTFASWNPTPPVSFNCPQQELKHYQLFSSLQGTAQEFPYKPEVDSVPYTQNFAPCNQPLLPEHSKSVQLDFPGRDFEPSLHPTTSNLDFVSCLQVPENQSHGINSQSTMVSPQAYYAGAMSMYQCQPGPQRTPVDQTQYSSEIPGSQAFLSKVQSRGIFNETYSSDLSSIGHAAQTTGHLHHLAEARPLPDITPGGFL
Assay: Transactivation assay in mouse cell line (in vitro assay 2): antagonism
Settings: Hepa 1c1c7 cells, AHR inducible firefly luciferase reporter (DRE), 200 μM kynurenic acid, 20 hours
Assay metric: IC50 (nM)
One number for each entry, in nM.

Consider the worked cases shown below.
> print(dat)
                                   compound           target.of.assay  measured.number
1  Cc1cccc(-c2nc(C(=O)N[C@@H](C)CO)cc(-c3ccc(Cl)cc3)n2)c1  Mouse AhR (Mus musculus)             52.6
2  C[C@@H](CO)NC(=O)c1cc(-c2ccc(OC(F)(F)F)cc2)nc(-c2cccc(C#N)c2)n1  Mouse AhR (Mus musculus)              180
3  COc1cc(F)cc(-c2nc(C(=O)N[C@@H](C)CO)cc(-c3ccc(Cl)cc3)n2)c1  Mouse AhR (Mus musculus)             81.5
4  Cc1cc(F)cc(-c2nc(C(=O)N[C@@H](C)CO)cc(-c3ccc(OC(F)(F)F)cc3)n2)c1  Mouse AhR (Mus musculus)              191
5  CC(C)(O)CNC(=O)c1cc(-c2ccc(Cl)cc2)nc(-c2ccc(C(F)F)cc2)n1  Mouse AhR (Mus musculus)             7120

Consider the following items and state reported IC50 for each.
1. O=C(NC1CCCC(F)(F)C1O)c1cc(-c2ccc(OC(F)(F)F)cc2)nc(-c2cccc(F)c2)n1 (stereo not drawn)
2. C[C@@H](CO)NC(=O)c1cc(-c2ccc(OC(F)(F)F)cc2)nc(-c2ccc(Cl)cc2)n1
3. C[C@@H](CO)NC(=O)c1cc(-c2ccc(OC(F)(F)F)cc2)nc(-c2ccc(C(F)F)cc2)n1
4. Cc1cc(-c2nc(C(=O)NCC(C)(C)O)cc(-c3ccc(OC(F)(F)F)cc3)n2)ccc1F
5. C[C@H](CO)NC(=O)c1cc(-c2ccc(OC(F)(F)F)cc2)nc(-c2cccc(F)c2)n1

Response given:
1: 6.91; 2: 697; 3: 1100; 4: 637; 5: 17.8

----------
For each of the molecules below, state its pIC50.
Biological target: Human AhR (Homo sapiens)
Sequence (P35869 11-848): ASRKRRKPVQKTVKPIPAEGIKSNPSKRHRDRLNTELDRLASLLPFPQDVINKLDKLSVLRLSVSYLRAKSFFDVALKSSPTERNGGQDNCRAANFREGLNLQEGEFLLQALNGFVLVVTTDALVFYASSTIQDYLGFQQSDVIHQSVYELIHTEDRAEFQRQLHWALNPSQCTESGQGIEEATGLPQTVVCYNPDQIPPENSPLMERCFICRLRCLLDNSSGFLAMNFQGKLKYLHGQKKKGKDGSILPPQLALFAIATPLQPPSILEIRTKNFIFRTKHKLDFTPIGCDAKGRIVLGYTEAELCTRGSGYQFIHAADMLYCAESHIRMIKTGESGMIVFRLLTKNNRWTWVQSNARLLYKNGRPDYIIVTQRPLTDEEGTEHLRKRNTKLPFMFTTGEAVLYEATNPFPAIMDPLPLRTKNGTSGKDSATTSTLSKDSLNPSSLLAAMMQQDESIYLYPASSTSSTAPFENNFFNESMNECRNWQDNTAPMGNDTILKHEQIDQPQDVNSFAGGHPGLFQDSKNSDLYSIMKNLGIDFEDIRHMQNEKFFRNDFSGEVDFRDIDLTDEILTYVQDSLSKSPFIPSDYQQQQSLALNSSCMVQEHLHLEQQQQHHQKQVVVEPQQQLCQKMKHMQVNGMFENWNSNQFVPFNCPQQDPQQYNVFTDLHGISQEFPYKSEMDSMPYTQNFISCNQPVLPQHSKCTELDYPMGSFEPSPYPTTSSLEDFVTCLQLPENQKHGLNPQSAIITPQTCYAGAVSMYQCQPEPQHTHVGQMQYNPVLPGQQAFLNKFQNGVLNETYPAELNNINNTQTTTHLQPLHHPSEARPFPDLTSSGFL
Assay: Transactivation assay in human cell line (in vitro assay 1): antagonism
Settings: U87 glioblastoma cells, AHR inducible firefly luciferase reporter (DRE), 150 μM kynurenic acid, 20 hours
One number for each entry, as −log10 of the molar value.

Consider the worked cases shown below.
> print(dat)
                           smiles.structure  assay.metric  measured.number
1  CC(C)(O)CNC(=O)c1cc(-c2ccc(Cl)cc2)nc(-c2cc(F)cc(C(F)(F)F)c2)n1         pIC50             7.11
2  C[C@@H](CO)NC(=O)c1cc(-c2ccc(OC(F)(F)F)cc2)nc(-c2cc(F)cc(C#N)c2)n1         pIC50             7.67
3  C[C@@H](CO)NC(=O)c1cc(-c2ccc(Cl)cc2)nc(-c2ccc(Cl)cc2)n1         pIC50             6.19
4  CC(C)(O)CNC(=O)c1cc(-c2ccc(Cl)cc2)nc(-c2cc(F)cc(C#N)c2)n1         pIC50             7.24
5  C[C@H](CO)NC(=O)c1cc(-c2ccc(OC(F)(F)F)cc2)nc(-c2cccc(F)c2)n1         pIC50             7.91

pIC50 reading for C[C@@H](CO)NC(=O)c1cc(-c2cccc(F)c2)nc(-c2ccc(OC(F)(F)F)cc2)n1 : 7.39

----------
Target: Mouse AhR (Mus musculus, UniProt P30561)
Sequence (P30561 1-848 P471L/N533S/M589L): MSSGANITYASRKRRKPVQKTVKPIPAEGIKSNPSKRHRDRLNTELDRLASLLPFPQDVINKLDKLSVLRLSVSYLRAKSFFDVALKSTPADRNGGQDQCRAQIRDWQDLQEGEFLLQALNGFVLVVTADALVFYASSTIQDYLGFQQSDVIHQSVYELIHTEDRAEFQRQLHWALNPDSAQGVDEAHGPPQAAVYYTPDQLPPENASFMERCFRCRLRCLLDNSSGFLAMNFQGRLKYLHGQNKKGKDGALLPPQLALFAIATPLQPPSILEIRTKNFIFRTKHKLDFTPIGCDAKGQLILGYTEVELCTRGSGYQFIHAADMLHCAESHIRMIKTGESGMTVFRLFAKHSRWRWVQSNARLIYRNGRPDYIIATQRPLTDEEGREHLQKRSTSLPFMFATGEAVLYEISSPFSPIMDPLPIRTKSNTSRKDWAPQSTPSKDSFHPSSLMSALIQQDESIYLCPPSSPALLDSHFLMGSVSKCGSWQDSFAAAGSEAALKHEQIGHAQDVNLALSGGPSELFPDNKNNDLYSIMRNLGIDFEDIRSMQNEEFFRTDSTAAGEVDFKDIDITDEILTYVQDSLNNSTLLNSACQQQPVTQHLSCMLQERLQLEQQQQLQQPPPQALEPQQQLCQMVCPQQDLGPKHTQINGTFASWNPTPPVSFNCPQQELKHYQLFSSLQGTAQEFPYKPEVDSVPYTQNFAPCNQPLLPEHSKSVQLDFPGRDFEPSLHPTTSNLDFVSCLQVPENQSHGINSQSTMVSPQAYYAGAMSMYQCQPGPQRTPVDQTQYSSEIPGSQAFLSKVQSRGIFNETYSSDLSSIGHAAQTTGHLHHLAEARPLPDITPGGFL
Assay: Transactivation assay in mouse cell line (in vitro assay 2): antagonism
Conditions: Hepa 1c1c7 cells, AHR inducible firefly luciferase reporter (DRE), 200 μM kynurenic acid, 20 hours
Assay metric: pIC50
Give bare numbers, as −log10 of the molar value.

Consider the worked cases shown below.
> print(dat)
                           smiles.structure  measured.number
1  CC(C)(O)CNC(=O)c1cc(-c2ccc(OC(F)(F)F)cc2)nc(-c2cc(F)cc(F)c2)n1             7.55
2  COc1ccc(-c2nc(C(=O)N[C@@H](C)CO)cc(-c3ccc(Cl)cc3)n2)cc1             5.29

# ---- query molecule ----
pIC50 reading for Cc1cccc(-c2nc(C(=O)N[C@@H](C)CO)cc(-c3ccc(OC(F)(F)F)cc3)n2)c1 : 7.33
